# assay.conditions: in 1,2-dichlorobenzene, 283.15 K
assay.metric: solubility (mole fraction)
Give bare numbers.

Need solubility (mole fraction) of `Cn1cc([N+](=O)[O-])cn1` , thanks. 0.000121

====

# assay.conditions: in 2-butanone, 293.15 K
assay.metric: solubility (mole fraction)
One number for each entry.

What measured solubility (mole fraction) goes with `Cn1cc([N+](=O)[O-])cn1` ? 0.0112

====

# assay.conditions: in n-propanol, 308.15 K
assay.metric: solubility (mole fraction)

Which measured solubility (mole fraction) value corresponds to `Cn1cc([N+](=O)[O-])cn1` ? 0.00382

====

# assay.conditions: in acetone, 288.15 K
assay.metric: solubility (mole fraction)
Answers are plain numbers.

Any idea what solubility (mole fraction) was measured for `Cn1cc([N+](=O)[O-])cn1` ? 0.0239

====

# assay.conditions: in methyl acetate, 318.15 K
assay.metric: solubility (mole fraction)
Answers are plain numbers.

What solubility (mole fraction) value was documented for this compound, `Cn1cc([N+](=O)[O-])cn1` ? 0.0461

====

# assay.conditions: in n-propanol, 318.15 K
assay.metric: solubility (mole fraction)

So what's the measured solubility (mole fraction) for this one? `Cn1cc([N+](=O)[O-])cn1` 0.00487

====

# assay.conditions: in methanol, 293.15 K
assay.metric: solubility (mole fraction)
Answers are plain numbers.

What measured solubility (mole fraction) goes with `Cn1cc([N+](=O)[O-])cn1` ? 0.00754

====

# assay.conditions: in ethanol, 318.15 K
assay.metric: solubility (mole fraction)
Answers are plain numbers.

Look at this compound and give its reported solubility (mole fraction). `Cn1cc([N+](=O)[O-])cn1` 0.00785

====

# assay.conditions: in acetonitrile, 293.15 K
assay.metric: solubility (mole fraction)
One number for each entry.

Can you look up the measured solubility (mole fraction) of `Cn1cc([N+](=O)[O-])cn1` for me? 0.00423

====

# assay.conditions: in 1,2-dichlorobenzene, 288.15 K
assay.metric: solubility (mole fraction)
Answers are plain numbers.

So what's the measured solubility (mole fraction) for this one? `Cn1cc([N+](=O)[O-])cn1` 0.000147

====

# assay.conditions: in methyl acetate, 303.15 K
assay.metric: solubility (mole fraction)
One number for each entry.

Dear colleague, I am looking for the recorded solubility (mole fraction) of the following compound: `Cn1cc([N+](=O)[O-])cn1` 0.0293

====

# assay.conditions: in methyl acetate, 298.15 K
assay.metric: solubility (mole fraction)
Answers are plain numbers.

For the compound `Cn1cc([N+](=O)[O-])cn1` , what solubility (mole fraction) is on record? 0.0255

====

# assay.conditions: in n-butanol, 323.15 K
assay.metric: solubility (mole fraction)

Give its solubility (mole fraction) value. Item: `Cn1cc([N+](=O)[O-])cn1` 0.0154

====

# assay.conditions: in 2-butanone, 318.15 K
assay.metric: solubility (mole fraction)
Numbers only.

# query: solubility (mole fraction) of entry `Cn1cc([N+](=O)[O-])cn1` 0.0242

====

# assay.conditions: in methanol, 313.15 K
assay.metric: solubility (mole fraction)
Give bare numbers.

Look up solubility (mole fraction): `Cn1cc([N+](=O)[O-])cn1` 0.0113

====

# assay.conditions: in n-pentanol, 303.15 K
assay.metric: solubility (mole fraction)

Query (compound): `Cn1cc([N+](=O)[O-])cn1` ; field requested: solubility (mole fraction) 0.00278

FYI, the data here is from BigSolDB 2.1.
